# System: Plasmodium falciparum
# Test description: Plasmodium falciparum sporozoite viability assay; further: in the data most compounds retested in dose-response had high values
# Type: functional, organism-based
In all, about 34,000 compounds went through this assay and about 290 (0.85%) showed an effect of 50% or more. The sample holds strong results, similar compounds and a random draw of the others, so the mix is not that of the screen.
Recorded metric: Percent Effect (%)

| Compound | Display unit | Endpoint value |
| --- | --- | --- |
| CC(=O)N1CCc2ncc(CNC(=O)C3CCC3)n2CC1 | % | -7.632 |
| COc1ccc(S(=O)(=O)N2C[C@@H]3CN(C)CCO[C@@H]3C2)cc1 | % | 1.798 |
| O=C1CN(c2ccc(CNC(=O)NCc3ccoc3)cc2)CCN1 | % | 13.47 |
| O=C(c1cnccn1)N1CCN(Cc2csc(-c3ccccc3)n2)CC1 | % | 9.607 |
| CN(C)c1ccc(C(=O)N2CCC(c3cc4ncccc4[nH]3)CC2)cc1 | % | -1.989 |
| CCc1nc(CN2CCCC(N(C)Cc3cnn(C)c3)C2)no1 (centres undefined) | % | -6.257 |
| Cc1nc(CN2CCC2(CCCc2ccccn2)C(=O)N(C)C)co1 (centres undefined) | % | 12.32 |
| O=c1[nH]c(CCN2CCCC2Cn2cncn2)nc2ccccc12 (centres undefined) | % | 9.596 |
| O=C(NCCc1cc(N2CCOCC2)nc(NC2CC2)n1)C1CCCO1 (centres undefined) | % | 11.42 |
| O=C(c1ccc(-c2cccc3c2CCNC3)o1)N1CCCCC1 | % | -26 |
| Cc1cc(CN2CCOC(Cn3nc(C)cc3C)C2)on1 (centres undefined) | % | 2.612 |
| Cc1nn(CC(C)C)c(N(C)C)c1CNCc1cccnc1N(C)C | % | 0 |
| CCc1nc(CN2CCCN(Cc3cnn(C)c3)CC2)no1 | % | -9.563 |
| O=C(CC1CC1)N1Cc2nccn2CC(Cn2ncccc2=O)C1 (centres undefined) | % | 1.18 |
| Cc1cccc(-c2noc(CN3CC(n4cc(C)cn4)C3)n2)c1 | % | -1.145 |
| CN(C)C(=O)CN1CCCCC1c1nc(N)ncc1-c1ccc(Cl)cc1 (centres undefined) | % | -1.537 |
| Cc1cc(C)n(C2CN(CCC(=O)NC3CCCCC3)C2)n1 | % | -0.4038 |
| Cc1ccccc1-c1noc(CN2CC(n3cccn3)C2)n1 | % | -26.31 |
| O=C(O)C(F)(F)F.O=C(c1ccncc1F)N1CC2CC1(C(=O)N1CCCC1)C2 | % | -2.014 |
| CC(O)CN1CCN(Cc2csc(-c3cnn(C)c3)n2)CC1 (centres undefined) | % | 8.176 |
| Cc1cc(CN(C)C(=O)c2ccc(N(C)C)nc2)no1 | % | 3.089 |
| Cc1ccncc1CN1CCOCC1c1[nH]ncc1C (centres undefined) | % | -4.491 |
| CC(=O)N(Cc1ncc(C)o1)C1CCN(Cc2csc(C)n2)C1 (centres undefined) | % | 8.537 |
| CNS(=O)(=O)c1ccc(C(=O)N2CCCCC2c2ccc(C)cc2)o1 (centres undefined) | % | -0.2417 |

---

# Tested on: Plasmodium falciparum
# Test description: Plasmodium falciparum sporozoite viability assay; further: in the data most compounds retested in dose-response had high values
# Type: functional, organism-based
About 290 (0.85%) of roughly 34,000 compounds showed an effect of 50% or more. The entries come from a sample that favours strong results as a whole.
Property: Percent Effect; scope: individual compounds

| Compound | Percent Effect (%) |
| --- | --- |
| CC(C)CN1C(=O)C[C@@H]2[C@@H]1CCN2Cc1cccc(C#N)c1.O=C(O)C(F)(F)F | 7.99 |
| CCOC(=O)C1CCN(C(=O)c2cnn(-c3ccc(C)cc3)c2N)CC1 | -31.22 |
| Fc1cnc(N2C[C@@H]3C[C@@H](c4nc(C5CC5)cs4)O[C@@H]3C2)nc1.O=C(O)C(F)(F)F | -20.62 |
| COc1ccc2c(c1)C(=O)NC1(CC2)CCN(Cc2ccncc2)C1 (stereo not given) | 11.06 |
| CN(C)c1ncc(-c2cccc(F)c2)c(C2CNCCO2)n1.Cl (stereo not given) | 2.337 |
| CCCC(=O)N1CCCC(c2ccccn2)C1 (stereo not given) | -4.87 |
| CNC(=O)c1cn[nH]c1C1CCCN1C(=O)c1cccnc1 (stereo not given) | 6.523 |
| CCC(=O)N1CCCC(c2nc(N(C)C)ncc2-c2ccc(F)cc2)C1 (stereo not given) | 2.091 |
| Cc1ccc(-c2cccc(CC3(C(=O)O)CCOCC3)c2)c(C)c1 | -5.038 |
| COCCNC(=O)C1(CCCc2cccnc2)CCCN1C (stereo not given) | 16.89 |

---

# Tested on: Plasmodium falciparum
# Test description: Plasmodium falciparum sporozoite viability assay; further: in the data most compounds retested in dose-response had high values
# Type: functional, organism-based
Out of some 34,000 compounds screened, about 290 (0.85%) showed an effect of 50% or more. Only a selection was taken, and strong results are over-represented in it overall.
Recorded metric: Percent Effect

| Compound | Endpoint value |
| --- | --- |
| CC(C)(C(=O)N[C@@H]1CCC[C@@H](O)[C@@H]1O)c1cccc(F)c1 | 7.186% |
| Cc1cnn(CCNCc2c(C(C)C)nn(C)c2Cl)c1 | -5.882% |
| c1cc(CN2CCCC(c3nnc(-c4cnccn4)o3)C2)ccn1 (stereo unspecified) | 8.33% |
| CC(=O)N1N=C(c2cccs2)OC1C(=O)Nc1ccc(C)cc1 (stereo unspecified) | -16.37% |
| Cc1cc(C(=O)N2CCN(c3ncc4c(n3)CCOC4)CC2)sc1C | -7.443% |
| CN(C)CCN1Cc2ncn(C)c2C(COCC(=O)N(C)C)C1 (stereo unspecified) | 10.44% |
| Cc1csc(CNCC(C)c2nc3ccccc3o2)n1 (stereo unspecified) | 10.3% |
| O=C(O)C(F)(F)F.O=C([C@H]1C[C@H]2OCC[C@H]2N(CCc2ccccc2)C1)N1CCCCO1 | -6.171% |
| Cc1nn(C)cc1C(=O)N1CCC(C(=O)c2nc3ccccc3s2)CC1 | 4.427% |
| Cc1cc(N2CCC(c3n[nH]c4nccnc34)CC2)ncn1 | 7.584% |
| Cn1cc(CN2CCC3(CC2)CC(Nc2nccs2)CO3)cn1.O=C(O)C(F)(F)F (stereo unspecified) | 18.81% |

---

# Tested on: Plasmodium falciparum
# Test description: Plasmodium falciparum sporozoite viability assay; further: in the data most compounds retested in dose-response had high values
# Assay type: functional, organism-based
Out of some 34,000 compounds screened, about 290 (0.85%) showed an effect of 50% or more. Shown is part of a subset that was picked to be rich in strong results.
Percent Effect listing for selected compounds.
Recorded metric: Percent Effect

| Compound | Endpoint value |
| --- | --- |
| O=C(NCC1CCCO1)c1nc2c(s1)CCCN2C(=O)C1CC1 (configuration not stated) | -5.565% |
| O=C(C1CCOCC1)N1CC[C@@H](O)[C@@H]1Cc1ccccc1 | -0.722% |
| COc1cc(CCC(=O)N2CCC(c3cc4ncc(C)nc4[nH]3)C2)on1 (configuration not stated) | 3.144% |
| CC(Cn1cccn1)NC(=O)NCCc1cccs1 (configuration not stated) | -5.389% |
| Cc1cccc(NC(=O)c2cncc(C3CCNCC3)n2)n1 | 3.261% |
| COCCN1CCN(C(C)C(=O)Nc2ccnn2C(C)C)CC1 (configuration not stated) | -4.51% |
| Cc1nn(C)cc1CN1CCC(c2ncc(Cl)cc2S(C)(=O)=O)CC1 | 3.927% |
| CCN(CC)S(=O)(=O)c1cc2c3c(c1)c(C)cc(=O)n3CC2 | 16.61% |
| O=C1CN(c2ccc(CNC(=O)NCCO)cc2)CCN1 | 1.887% |
| Cc1n[nH]c(C(=O)NCc2ccnc(OCC(F)(F)F)c2)c1Br | -2.803% |
| c1cc(C2CCN(c3cnccn3)CC2)ccn1 | 11.86% |
| Cn1cc(CCNC(=O)CCc2ccc3c(c2)OCO3)cn1 | 0.08354% |

---

# Tested on: Plasmodium falciparum
# Test description: Plasmodium falciparum sporozoite viability assay; further: in the data most compounds retested in dose-response had high values
# Assay type: functional, organism-based
The campaign covered roughly 34,000 compounds. About 290 (0.85%) showed an effect of 50% or more. This excerpt belongs to a sample that is enriched for strong results.

| Compound | Percent Effect / % |
| --- | --- |
| c1ccc2oc(CN3CCCC3Cn3cncn3)nc2c1 (configuration not stated) | 3.888 |
| O=C(c1cc(Cl)c[nH]1)N(CCCO)Cc1cccnc1 | -9.649 |
| CC(C)CC(=O)N1CCC(Nc2nc(O)cc(-c3ccsc3)n2)CC1 | 14.33 |
| Cc1cc(C)c(S(=O)(=O)NCCC(=O)NCc2ccoc2)c(C)c1 | -16.91 |
| CCN1CCN(c2ccc(CNC(=O)Cc3c(C)noc3C)cn2)CC1 | 9.727 |
| COc1cc(NC(=O)c2ccc(F)cc2Cl)c(C(=O)N(C)C)cc1OC | -12.25 |
| CCc1noc(CN(CC)Cc2cc3cc(C)ccc3[nH]c2=O)n1 | -10 |
| CCc1ocnc1C(=O)N1CCCC1c1noc(C(C)C)n1 (configuration not stated) | -5.615 |
| CCCN1Cc2ccccc2CC1C(=O)NC (configuration not stated) | -3.834 |
| O=C(Nc1ccccc1OCCc1ccccn1)N1CCOCC(O)C1 (configuration not stated) | 6.804 |
| O=C(N[C@@H]1CN(Cc2ccc3cc[nH]c3c2)C[C@H]1O)c1cnccn1 | -1.172 |
| Cc1cc(CN2CCN(C(=O)NCc3csc(C)n3)CC2)on1 | -16.07 |
| CCOCC1CN(C(=O)c2ccncn2)Cc2cnn(CC)c21.O=C(O)C(F)(F)F (configuration not stated) | -5.589 |
| Cc1noc(NC(=O)c2ccc(OC(F)(F)F)cc2)n1 | -13.94 |
| Cc1nc(C)n(C2CCCN(C(=O)c3csc(CC(C)C)n3)C2)n1 (configuration not stated) | 0.06439 |
| Cn1ccc(C(=O)N2CCCC2c2[nH]ncc2C(N)=O)n1 (configuration not stated) | 3.652 |
| Nc1cccc(C2CN(C(=O)CN3CCOCC3)CCO2)n1 (configuration not stated) | 3.517 |
| Cc1ccc(C2CN(Cc3cccc4[nH]ccc34)CCO2)nc1 (configuration not stated) | 9.691 |
| COc1ccc(-c2cnc(N(C)C)nc2C2CN(C(C)=O)CCO2)cc1 (configuration not stated) | 14.8 |
| CCNC(=O)NCCc1csc(N2CCCC2)n1 | -15.2 |
| CCn1ncc2c1C(COC)CN(Cc1ccc(F)cc1)C2.O=C(O)C(F)(F)F.O=C(O)C(F)(F)F (configuration not stated) | 5.175 |
| Cc1nc(-c2ccsc2)sc1C(=O)N1CCn2c(C)nnc2C1 | 4.116 |
| OC(COCc1ccccc1)CN1CCC(c2ccn[nH]2)CC1 (configuration not stated) | 8.709 |
| COc1cccc(-c2ccnc(C3CCNCC3)c2)c1 | 4.65 |
| CCOCc1nn(CC2CC2)c2c1CN(Cc1cccs1)CC2.O=C(O)C(F)(F)F.O=C(O)C(F)(F)F | 6.48 |
| O=C1NCCN1C1CCN(CCOc2cccc3ccccc23)CC1 | 0.4468 |
| CSCC[C@H](N)c1nnc(SCc2cc(C)ccc2C)o1.Cl | -8.516 |
| Cc1c[nH]nc1C1CN(Cc2cnn(-c3ccccc3C(=O)O)c2)C1 | -1.554 |
| O=C(CCCc1nnc(-c2ccccc2)o1)N1CCN(C2CC2)CC1 | 16.07 |
| O=C(O)C(F)(F)F.O=c1ccc2c(n1CC1CC1)CCC(NCc1cccs1)C2 (configuration not stated) | 4.557 |
| CS(=O)(=O)CCSc1nnc(Cc2ccccc2F)o1 | -5.789 |
| Cl.O=S1(=O)CCC(NCCn2cncc2-c2ccc3c(c2)CCCO3)C1 (configuration not stated) | -8.887 |
| CCNC(=O)c1cc(OC)c2cc(F)cc(C)c2n1 | 1.557 |
| Cc1cc(CN2CCC3(CC2)C(=O)NCCN3CC2CC2)oc1C | -0.5945 |
| CC(C)(C)c1cn2nc(N3CCOC(Cn4cncn4)C3)sc2n1 (configuration not stated) | 8.052 |
| COc1cccc(CNC(=O)C(c2cccc(F)c2)N2CCOCC2)c1 (configuration not stated) | -3.044 |
| Cc1cccc(-c2noc(CN3CCOCC3C)n2)c1 (configuration not stated) | 5.079 |
| CC1CN(c2ccccc2Cl)C(=O)CN1C(=O)c1c[nH]c(=O)c(Cl)c1 (configuration not stated) | 1.644 |
| CCCNC(=O)c1ncn2c1CN(CC(C)C)S(=O)(=O)c1ccccc1-2 | 20.71 |
| CN(C)C(=O)N1CCN(Cc2cnc(-c3ccsc3)s2)CC1 | -10.41 |
| CC(NCc1ccccc1Cl)c1ccc2[nH]c(=O)[nH]c2c1 (configuration not stated) | 4.238 |
| CCn1c(C)nc2cc(NC(=O)C3CN(C(C)=O)C3)ccc21 | -0.5895 |
| CC(C)CN(C)Cc1nc2c(cnn2C)c(=O)[nH]1 | 7.587 |
| COc1c(C2CCCN2Cc2noc(C(C)C)n2)c(C)nn1C (configuration not stated) | 4.307 |
| Cc1cc(C)n(C2CN(CC(=O)N(C)Cc3ccc(C)o3)C2)n1 | -8.906 |
| Cc1nc(NCc2cccc(F)c2)cc(C2CCNCC2)n1.Cl | 0.8951 |
| Cc1ccnc(NC(=O)C2(n3cnnn3)CCCCC2)c1 | -7.357 |
